Entries annotated with measured inhibition
test system: emLYPLA2; test: LYPLA1 and LYPLA2 inhibitors, biochemical, gel-based ABPP, fluorescence, recombinant and endogenous enzyme (AID 493105); conditions: fluorescent probe labeling, membrane fraction, at 20 µM, hits give high values
Write down the numeric answer in % and omit the unit.

These recorded examples may help you get a feel for the data.
COc1ccc(-n2nc(C(=O)NCC(=O)N3CCN(Cc4ccccc4)CC3)c3ccccc3c2=O)c(OC)c1
46
Clc1ccc(C(c2ccc(Cl)cc2)n2cc[n+](CC(OCc3ccc(Cl)cc3Cl)c3ccc(Cl)cc3Cl)c2)cc1 (centres undefined)
0
CC(NC(=O)c1ccco1)C(=O)N1CCN(c2cccc(C(F)(F)F)c2)CC1 (centres undefined)
12
COc1ccc(N2CCN(C(=O)CCCCCn3c(=O)[nH]c4ccsc4c3=O)CC2)cc1
6
Cc1ccc([N+](=O)[O-])c(OCCCN2CCC(Cc3ccccc3)CC2)c1
2

With those in mind, consider the next molecule.
Query O=C(CCCCCCN1C(=O)c2ccccc2C1=O)N1CCC(c2ccccc2)C1 (centres undefined) yields inhibition of 17

====

test system: rhLYPLA2; assay: LYPLA1 and LYPLA2 inhibitors, biochemical, gel-based ABPP, fluorescence, recombinant and endogenous enzyme (AID 493105); details: fluorescent probe labeling, membrane fraction, at 20 µM, hits give high values
Cut-off 1% on inhibition, inclusive. At or above means t; below means f.

Task: Please tell me: is the compound COc1ccc(N2CCN(C(=O)CNC(=O)c3cn(-c4ccccc4OC)c(=O)c4ccccc34)CC2)cc1 at or over 1% in terms of inhibition?
Output: t

====

Entries annotated with measured inhibition
test system: rhLYPLA1; assay: LYPLA1 and LYPLA2 inhibitors, biochemical, gel-based ABPP, fluorescence, recombinant and endogenous enzyme (AID 493105); conditions: fluorescent probe labeling, soluble fraction, at 20 µM, hits give high values
Write down the numeric answer in % and omit the unit.

O=C(c1cc(COc2cccc(C(F)(F)F)c2)on1)N1CCC(Oc2cccnc2)CC1
0
O=C(/C=C/c1ccccc1)N1CCN(CCN2C(=O)c3cccc4cccc(c34)C2=O)CC1
15
Cc1ccc(CN2CCN(/N=C/C=C/c3ccccc3[N+](=O)[O-])CC2)cc1
27
COc1ccc(C(=O)NC(=S)Nc2ccc(N3CCN(C(C)=O)CC3)cc2)cc1[N+](=O)[O-]
44
O=C(N1CCOCC1)n1nnc2ccccc21
98

Tested on rhLYPLA1: CCOc1cc(CN2CCCC(C(=O)c3cccc(C(F)(F)F)c3)C2)ccc1O (stereo not given) . Observed inhibition: 2

Tested on rhLYPLA1: O=[N+]([O-])c1ccc(N2CCC(=NOCc3ccc(Cl)cc3)CC2)cc1 . Observed inhibition: 22

Tested on rhLYPLA1: COc1cc(/C=N/N2CCN(Cc3ccc(Cl)cc3)CC2)cc(Br)c1O . Observed inhibition: 31

Tested on rhLYPLA1: O=C(CCCCn1c(=O)[nH]c2ccccc2c1=O)N1CCN(c2cccc(C(F)(F)F)c2)CC1 . Observed inhibition: 0

Tested on rhLYPLA1: COc1ccc2c(c1)C(=O)[C@H](O)[C@@H](c1ccc(OC)c(Br)c1)O2 . Observed inhibition: 0

Tested on rhLYPLA1: O=C(/C=C/c1ccc(Br)cc1)N1CCN(c2cccc(C(F)(F)F)c2)CC1 . Observed inhibition: 16

Tested on rhLYPLA1: N#Cc1c(NC(=O)CN2CCN(C(=O)c3ccco3)CC2)sc2c1CCCCC2 . Observed inhibition: 20

Tested on rhLYPLA1: O=C(CCCc1ccccc1)N1CCN(c2ccc([N+](=O)[O-])cc2)CC1 . Observed inhibition: 0

Tested on rhLYPLA1: COc1ccc(-n2nc(C(=O)NCC(=O)N3CCN(Cc4ccccc4)CC3)c3ccccc3c2=O)c(OC)c1 . Observed inhibition: 31

Tested on rhLYPLA1: Cc1ccc(OCC(=O)N2CCN(c3ccc([N+](=O)[O-])c(N4CCOCC4)c3)CC2)cc1 . Observed inhibition: 10

Tested on rhLYPLA1: Cc1[nH]c2ccccc2c1C(=O)CN1CCN(C/C=C/c2ccccc2)CC1 . Observed inhibition: 0

Tested on rhLYPLA1: COc1ccc(-n2nc(C(=O)NCC(=O)N3CCN(c4cccc(Cl)c4)CC3)c3ccccc3c2=O)c(OC)c1 . Observed inhibition: 0

Tested on rhLYPLA1: CCC(=C/c1sc2ccc3ccccc3c2[n+]1C)/C=C1\Sc2ccc3ccccc3c2N1C . Observed inhibition: 0

Tested on rhLYPLA1: Cc1cc(OCc2cc(C(=O)N3CCC(Oc4cccnc4)CC3)no2)cc(C)c1Cl . Observed inhibition: 0

Tested on rhLYPLA1: O=C(CN1CCN(c2ccccn2)CC1)Nc1cc(C(F)(F)F)ccc1Cl . Observed inhibition: 36
